System: Canis familiaris
assay.text: Heart rate of the dog was measured after drug administration to dogs
Assay type: functional, Canis lupus familiaris
Below, each entry is listed with its recorded Heart rate.
value.type: Heart rate (min⁻¹)

>  <molecule>
OC(c1ccco1)(c1ccco1)C1CC2CCN1CC2 (configuration not stated)

>  <target.desc>
Canis familiaris

>  <units.of.measure>
min⁻¹

>  <recorded.value>
180

$$$$
>  <molecule>
CCN(CC)CC(=O)Nc1c(C)cccc1C

>  <target.desc>
Canis familiaris

>  <units.of.measure>
min⁻¹

>  <recorded.value>
169

$$$$
>  <molecule>
COc1ccc(C(O)(c2ccc(OC)cc2)C2CC3CCN2CC3)cc1 (configuration not stated)

>  <target.desc>
Canis familiaris

>  <units.of.measure>
min⁻¹

>  <recorded.value>
168

$$$$
>  <molecule>
C=C[C@H]1CN2CC[C@H]1C[C@@H]2[C@@H](O)c1ccnc2ccc(OC)cc12

>  <target.desc>
Canis familiaris

>  <units.of.measure>
min⁻¹

>  <recorded.value>
170

$$$$
>  <molecule>
O[C@H](C1=C2C=CC=CC(=CC=C1)C2)[C@@H]1CC2CCN1CC2 (relative stereo)

>  <target.desc>
Canis familiaris

>  <units.of.measure>
min⁻¹

>  <recorded.value>
156

$$$$
>  <molecule>
OC(c1ccccc1)(c1ccccc1)C1CC2CCN1CC2 (configuration not stated)

>  <target.desc>
Canis familiaris

>  <units.of.measure>
min⁻¹

>  <recorded.value>
186

$$$$
>  <molecule>
OC(c1ccccc1)(c1nccs1)C1CC2CCN1CC2 (configuration not stated)

>  <target.desc>
Canis familiaris

>  <units.of.measure>
min⁻¹

>  <recorded.value>
150

$$$$
>  <molecule>
O[C@H](c1ccc(Cl)cc1)[C@@H]1CC2CCN1CC2 (relative stereo)

>  <target.desc>
Canis familiaris

>  <units.of.measure>
min⁻¹

>  <recorded.value>
160

$$$$
>  <molecule>
COc1ccc([C@](O)(c2cc(Br)ccc2OC)C2CC3CCN2CC3)cc1 (some centres not stated)

>  <target.desc>
Canis familiaris

>  <units.of.measure>
min⁻¹

>  <recorded.value>
160

$$$$
>  <molecule>
Cc1ccc(C(O)(c2ccc(C)cc2)C2CC3CCN2CC3)cc1 (stereo in doubt; 21)

>  <target.desc>
Canis familiaris

>  <units.of.measure>
min⁻¹

>  <recorded.value>
134

$$$$
>  <molecule>
COc1ccc(Br)cc1C(O)(c1cc(Br)ccc1OC)C1CC2CCN1CC2 (configuration not stated)

>  <target.desc>
Canis familiaris

>  <units.of.measure>
min⁻¹

>  <recorded.value>
162

$$$$
>  <molecule>
CC(C)NCC(O)COc1cccc2ccccc12 (configuration not stated)

>  <target.desc>
Canis familiaris

>  <units.of.measure>
min⁻¹

>  <recorded.value>
138

$$$$

---

Below, each entry is listed with its recorded No. of dogs reverted.
Organism: Canis familiaris
assay.text: Number of dogs reverted ouabain induced arrhythmia
Format: functional, Canis lupus familiaris
value.type: No. of dogs reverted

>  <compound>
OC(c1ccccc1)(c1ccccc1)C1CC2CCN1CC2 (stereo unspecified)

>  <value.type>
No. of dogs reverted

>  <recorded.value>
2

$$$$
>  <compound>
COc1ccc(Br)cc1C(O)(c1cc(Br)ccc1OC)C1CC2CCN1CC2 (stereo unspecified)

>  <value.type>
No. of dogs reverted

>  <recorded.value>
1

$$$$
>  <compound>
CC(C)NCC(O)COc1cccc2ccccc12 (stereo unspecified)

>  <value.type>
No. of dogs reverted

>  <recorded.value>
5

$$$$
>  <compound>
OC(c1ccco1)(c1ccco1)C1CC2CCN1CC2 (stereo unspecified)

>  <value.type>
No. of dogs reverted

>  <recorded.value>
1

$$$$
>  <compound>
O[C@H](c1ccc(Cl)cc1)[C@@H]1CC2CCN1CC2 (relative stereo)

>  <value.type>
No. of dogs reverted

>  <recorded.value>
0

$$$$
>  <compound>
OC(c1ccccc1)(c1nccs1)C1CC2CCN1CC2 (stereo unspecified)

>  <value.type>
No. of dogs reverted

>  <recorded.value>
1

$$$$
>  <compound>
C=C[C@H]1CN2CC[C@H]1C[C@@H]2[C@@H](O)c1ccnc2ccc(OC)cc12

>  <value.type>
No. of dogs reverted

>  <recorded.value>
10

$$$$
>  <compound>
CCN(CC)CC(=O)Nc1c(C)cccc1C

>  <value.type>
No. of dogs reverted

>  <recorded.value>
5

$$$$
>  <compound>
Cc1ccc(C(O)(c2ccc(C)cc2)C2CC3CCN2CC3)cc1 (stereo in doubt; 21)

>  <value.type>
No. of dogs reverted

>  <recorded.value>
3

$$$$
>  <compound>
COc1ccc(C(O)(c2ccc(OC)cc2)C2CC3CCN2CC3)cc1 (stereo unspecified)

>  <value.type>
No. of dogs reverted

>  <recorded.value>
1

$$$$
>  <compound>
COc1ccc([C@](O)(c2cc(Br)ccc2OC)C2CC3CCN2CC3)cc1 (stereo partly specified)

>  <value.type>
No. of dogs reverted

>  <recorded.value>
0

$$$$
